Items are presented alongside their recorded optical density.
- test system: T1, biotinylated goat anti-human kappa light chain
- T1 construct: positive control of the ELISA
- assay protocol: ELISA, positive control; further: test concentration or dose not given here
value type: optical density

1. 369_E06 (antibody, V domains shown, Group III) VH: EVQLLESGGGLVQPGGSLRLSCAASGFTFSSYGMNWVRQAPGKGLEWVSGINYNGGYTSYADSVKGRFTISRDNSKNTLYLQMNSLRAEDTAVYYCARGANWHDTALDYWGQGTLVTVSS VL: DIQMTQSPSSLSASVGDRVTITCRASQSIISYLNWYQQKPGKAPKLVIYAATSRHSGVPSRFSGSGSGTDFTLTISSLQPEDFATYYCQQSYDSPLTFGGGTKVEIK    3.52 OD
2. 367_H03 (antibody, V domains shown, Group III) VH: EVQLLESGGGLVQPGGSLRLSCAASGFTFSSYGMNWVRQAPGKGLEWVAGINYNSGYTSYADSVKGRFTISRDNSKNTLYLQMNSLRAEDTAVYYCARGANWHDTHLDYWGQGTLVTVSS VL: DIQMTQSPSSLSASVGDRVTITCRASQSIITYVNWYQQKPGKAPKLLIYAATSLASGVPSRFSGSGSGTDFTLTISSLQPEDFATYYCQQSYDLPLTFGGGTKVEIK    3.34 OD
3. 374_A09 (antibody, V domains shown, Group III) VH: EVQLLESGGGLVQPGGSLRLSCAASGFTFSSYSMNWVRQAPGKGLEWVSSINYNGGYKGYADSVKGRFTISRDNSKNTLYLQMNSLRAEDTAVYYCARGANWHDTHLDYWGQGTLVTVSS VL: DIQMTQSPSSLSASVGDRVTITCRASQSILTYVNWYQQKPGKAPKLLIYAATSLASGVPSRFSGSGSGTDFTLTISSLQPEDFATYYCQQSYDSPLTFGGGTKVEIK    2.97 OD
4. 375_A01 (antibody, V domains shown, Group III) VH: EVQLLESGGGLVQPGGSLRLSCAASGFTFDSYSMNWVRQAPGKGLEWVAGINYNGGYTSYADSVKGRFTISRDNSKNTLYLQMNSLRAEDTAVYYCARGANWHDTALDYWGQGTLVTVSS VL: DIQMTQSPSSLSASVGDRVTITCRASQSILSYLNWYQQKPGKAPKLVIYAATSRASGVPSRFSGSGSGTDFTLTISSLQPEDFATYYCQQSYNTPLTFGGGTKVEIK    2.91 OD
5. 371_H10 (antibody, V domains shown, Group III) VH: EVQLLESGGGLVQPGGSLRLSCAASGFTFSSYSMNWVRQAPGKGLEWVAGINYNSGYKSYADSVKGRFTISRDNSKNTLYLQMNSLRAEDTAVYYCARGANWHDTHLDYWGQGTLVTVSS VL: DIQMTQSPSSLSASVGDRVTITCRASQSISTYLNWYQQKPGKAPKLLIYAATSRHSGVPSRFSGSGSGTDFTLTISSLQPEDFATYYCQQSYENPLTFGGGTKVEIK    3.55 OD
